Data credit: the supplement of paper PMC11865577

System: TO-3-N3 (biotin conjugate)
ASSAY NAME: pull-down binding Z-score (relative to library population); higher = stronger binding
CONDITIONS USED: RNA library: Library-2
Consider the following sequences and their measured pull-down binding Z-score readings.

Q: Form field: pull-down binding Z-score recorded for UCGAGAGGUCAGAGGAUUGCUCCUGA [hsa-mir-5585] with TO-3-N3 (biotin conjugate) (enter value)
Ans: 0.00526

Q: Quick one: AAUCCCAGCACUUUGGGAG [hsa-mir-3929]
Ans: 0.0452

Q: Quick one: CAGAGUCGUAUUUGUCUUAUGGGCACAUGGCUUUG [SHAPE_invivo_SARS-CoV-2_Motif_350]
Ans: 0.361
